Record form. Attribute: KDR OD(450 nm). Fill in for each entry.
molecular target: T1, soluble KDR (VEGF Receptor 2 D1-7, Cat. #676490, Calbiochem) (human, UniProt P35968 20-764); assay: ELISA, plate-coated soluble KDR 250 ng/mL, hybridoma supernatant 1:5
T1 construct: extracellular domain; Bought reagent; also called soluble human KDR; immobilized soluble KDR
T1 sequence (P35968 20-764): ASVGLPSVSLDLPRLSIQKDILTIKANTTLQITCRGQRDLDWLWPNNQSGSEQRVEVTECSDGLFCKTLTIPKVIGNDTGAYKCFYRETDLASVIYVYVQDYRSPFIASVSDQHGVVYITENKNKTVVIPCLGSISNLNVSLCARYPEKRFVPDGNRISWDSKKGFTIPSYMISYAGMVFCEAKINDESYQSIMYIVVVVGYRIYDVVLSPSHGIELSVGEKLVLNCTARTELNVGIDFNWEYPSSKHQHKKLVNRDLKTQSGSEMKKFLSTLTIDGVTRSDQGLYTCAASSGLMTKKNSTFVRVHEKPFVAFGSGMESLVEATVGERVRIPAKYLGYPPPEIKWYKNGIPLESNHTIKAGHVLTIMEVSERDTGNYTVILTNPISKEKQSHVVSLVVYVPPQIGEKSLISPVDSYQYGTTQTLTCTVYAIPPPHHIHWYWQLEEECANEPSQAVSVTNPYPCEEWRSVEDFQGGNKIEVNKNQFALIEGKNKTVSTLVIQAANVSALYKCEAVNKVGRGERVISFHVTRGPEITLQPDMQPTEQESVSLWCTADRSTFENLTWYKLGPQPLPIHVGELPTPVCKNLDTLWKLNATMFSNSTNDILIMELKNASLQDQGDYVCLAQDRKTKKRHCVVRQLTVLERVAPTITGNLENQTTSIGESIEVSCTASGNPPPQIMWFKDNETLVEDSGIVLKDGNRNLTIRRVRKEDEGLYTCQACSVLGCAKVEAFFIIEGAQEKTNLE
One number for each entry, in OD450.

Sample answers from the record:
| Binder | Measured number |
| --- | --- |
| anti-KDR monoclonal antibody 1G6 (antibody, V domains shown, Fully human mAb from XenoMouse (IgG2 or IgG4 strain); tested here as hybridoma supernatant) VH: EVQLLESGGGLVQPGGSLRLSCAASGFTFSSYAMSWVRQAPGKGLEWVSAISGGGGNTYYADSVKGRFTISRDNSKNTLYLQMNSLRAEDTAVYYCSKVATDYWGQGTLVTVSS VL: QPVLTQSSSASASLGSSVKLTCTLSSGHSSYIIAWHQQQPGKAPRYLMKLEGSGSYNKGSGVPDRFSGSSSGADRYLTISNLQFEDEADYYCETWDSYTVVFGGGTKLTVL | 6 |
| anti-KDR monoclonal antibody 29A3 (antibody, V domains shown, Fully human mAb from XenoMouse (IgG2 or IgG4 strain); hybridoma supernatant) VH: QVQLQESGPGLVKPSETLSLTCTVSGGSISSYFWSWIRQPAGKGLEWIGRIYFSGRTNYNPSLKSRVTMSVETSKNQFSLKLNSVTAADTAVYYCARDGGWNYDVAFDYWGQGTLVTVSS VL: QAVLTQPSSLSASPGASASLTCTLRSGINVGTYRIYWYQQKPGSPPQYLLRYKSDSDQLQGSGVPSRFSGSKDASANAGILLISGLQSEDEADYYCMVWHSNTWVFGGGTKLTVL | 0.814 |
| anti-KDR monoclonal antibody 30A1 (antibody, V domains shown, Fully human mAb from XenoMouse (IgG2 or IgG4 strain); hybridoma supernatant) VH: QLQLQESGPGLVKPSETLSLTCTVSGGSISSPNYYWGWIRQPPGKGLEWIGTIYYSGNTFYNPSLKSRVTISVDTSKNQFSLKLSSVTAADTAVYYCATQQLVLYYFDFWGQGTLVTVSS VL: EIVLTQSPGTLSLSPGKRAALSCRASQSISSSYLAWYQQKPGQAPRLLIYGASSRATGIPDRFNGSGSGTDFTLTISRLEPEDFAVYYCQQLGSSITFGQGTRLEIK | 0.786 |

Kindly consider the entry below.
What value of KDR OD(450 nm) has been recorded for this entry: anti-KDR monoclonal antibody 33D5 (antibody, V domains shown, Fully human mAb from XenoMouse (IgG2 or IgG4 strain); hybridoma supernatant) VH: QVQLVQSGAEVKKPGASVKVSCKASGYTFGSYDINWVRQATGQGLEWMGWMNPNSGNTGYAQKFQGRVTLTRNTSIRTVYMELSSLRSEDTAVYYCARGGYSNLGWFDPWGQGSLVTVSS VL: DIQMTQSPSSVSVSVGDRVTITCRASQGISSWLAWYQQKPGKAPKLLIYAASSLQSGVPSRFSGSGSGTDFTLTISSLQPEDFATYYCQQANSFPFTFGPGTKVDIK 3.59
